tested on: CAKI-1 renal; assay: NCI tumour cell line growth inhibition, 48 h
Property: TGI

Solved cases (5 shown):
N#Cc1c(NCc2ccccc2)nc(NCc2ccccc2)c(C#N)c1-c1ccc(O)cc1 ... 44.8 µM
CC(C)N(O)C(=N)c1ccccc1 ... > 100 µM
CC(=O)/C(=C/c1ccccc1)C(=O)CC(C)C ... 20.6 µM
Cc1c2ccn(O)cc2c(C)c2c1nc1ccccc12 ... > 51.7 µM
O=C1/C=C/[C@@H](O)[C@@H]2C[C@@H](O)C[C@H]2/C=C/CCC[C@H](CCc2cccc3ccccc23)O1 ... 3.08 µM

Continue with the compound presented below.
-- ask What does the record list as TGI for CCC(=O)N1C(=O)OCC1C(C)C (stereo unspecified) ?
-- reply > 100 µM

----------
# reported TGI; entries follow
test system: UACC-62 melanoma; experiment: NCI tumour cell line growth inhibition, 48 h
Numbers only; they are read as µM.

Take a look at these entries with their results.
NC(=NCc1ccccc1)C(N=Nc1ccccc1)C(=O)NCc1ccccc1 (stereo not given) ... 37.6
C=C1CC2(CC(c3ccccc3Cl)OC(c3ccccc3Cl)C2)OC1=O (stereo not given) ... 4.68

-- ask What value of TGI has been recorded for this entry: OC1c2ccccc2CCC1CN1CCN(CCOC(c2ccc(F)cc2)c2ccc(F)cc2)CC1 (stereo not given)
-- reply 27.7

-- ask Requested read-out: TGI. Entry: COc1cc(C2CC(c3cccc(Nc4ccnc5cc(Cl)ccc45)c3)=NN2c2ccc(Cl)cc2)cc(OC)c1OC (stereo not given)
-- reply 19.9

-- ask Can you share its TGI? I mean this compound: COc1ccc(/C=C/C(=O)/C=C/c2ccc(OC)cc2OC)c(OC)c1
-- reply 52.5

-- ask Quick check: TGI of CCCc1n(Cc2ccc3ccccc3c2)cc[n+]1Cc1ccc2ccccc2c1 ?
-- reply 2.02

-- ask Reported TGI for O=C(CCl)NCCNc1nccc(Nc2ccc(S(=O)(=O)Nc3ccccn3)cc2)n1 : what is it?
-- reply 4.24

-- ask Quick check: TGI of O=C(CC1(O)C(=O)N(Cc2ccccc2)c2ccc(Cl)cc21)c1ccc(C(=O)NCC2CCC3(CC2)OOC2(CCCCC2)OO3)cc1 (stereo not given) ?
-- reply 77.7

-- ask Return reported TGI; argument: Cc1cccc(-n2c(N)c(-c3nc4ccccc4[nH]3)sc2=S)c1
-- reply 78.1

-- ask What value of measured TGI is listed for Cc1ccc2oc(=O)cc(/C(=C3/C=CC=N3)c3ccc[nH]3)c2c1 ?
-- reply 1.98

-- ask Which TGI is reported for this compound? COc1ccc(/C=C2/CSCC3=C2NC(=S)NC3c2ccc(OC)c(OC)c2OC)c(OC)c1OC (stereo not given)
-- reply 45

----------
Catalogue of compounds with associated TGI
test system: DU-145 prostate; assay: NCI tumour cell line growth inhibition, 48 h

C1CSCCSCCCSC2CCCCC2SC1 (stereo unspecified) ... > 100 µM
N#Cc1c(NCc2ccccc2)nc(NCc2ccccc2)c(C#N)c1-c1ccc(O)cc1 ... > 100 µM
N#CC(N=Nc1ccccc1C(=O)O)C(N)=O (stereo unspecified) ... > 100 µM
COC(=O)C1CCC(=O)N1C(c1cc(OC)c(OC)c(OC)c1)c1cc(OC)c(OC)c(OC)c1 (stereo unspecified) ... > 100 µM

-- ask Quick one: TGI for CCCCCCCCCCCCCCCC1=NCCN1 ?
-- reply 3.57 µM

-- ask Reported TGI for COc1cccc(C23CCCC(C2)NCC3Br)c1OC (stereo unspecified) : what is it?
-- reply > 100 µM

-- ask Field request: TGI | item: COCCN(CCNC(=O)c1cccc2c(N)c3cccc(C)c3nc12)CCOC
-- reply 9.64 µM

-- ask Form field: reported TGI of Cc1c(-c2ccc(C3CCCCC3)cc2)nc2ccc(F)cc2c1C(=O)O
-- reply > 100 µM

-- ask Could you tell me which TGI is on file for COc1cc(CSc2ccc(O)cc2)cc(OC)c1OC ?
-- reply > 100 µM

-- ask # input compound: CC(CC(N)C(=O)O)C(=O)O (stereo unspecified) ; wanted: its TGI
-- reply > 100 µM

-- ask Name the recorded TGI for CN(CCCCCl)P(=O)(OCCS(=O)(=O)CC(NC(=O)CCC(N)C(=O)O)C(=O)NC(C(=O)O)c1ccccc1)OCC1OC(n2ccc(N)nc2=O)C(O)C1O (stereo unspecified) .
-- reply > 75 µM

----------
Measured TGI accompanies every entry in the list below.
system: OVCAR-5 ovarian; experiment: NCI tumour cell line growth inhibition, 48 h

The cases that follow already have their TGI on record.
COc1cc(-c2nccc3cc(OC)c(OC)cc23)ccc1O ... > 100 µM
CC(=O)Nc1ccc2nc(-c3ccccn3)c(-c3ccccn3)nc2c1 ... > 100 µM
COc1ccc([N+](=O)[O-])c2c(NCCCN(C)C)ccnc12 ... 42.4 µM
CN(C)CCCN(CCC1CCCCC1)CCC1CCCCC1 ... 7.97 µM
NC(N)=NS(=O)(=O)c1ccc(N/N=C2/CCOC2=O)cc1 ... > 100 µM
CC(C)N1CCN(c2ccncc2S(=O)(=O)N2CCCCC2)CC1 ... > 100 µM
O=c1oc2ccc(I)cc2c(=O)n1-c1ccc(F)cc1F ... > 100 µM
COc1cc(/C=C(\NC(=O)c2ccccc2)c2nc3ccc4c(c3[nH]2)C(=O)c2ccccc2C4=O)cc(OC)c1OC ... > 100 µM
COc1cc(OC)c(C(=O)c2cccs2)cc1N ... > 100 µM
COc1cc(C)c(/C=C2/N=C(c3ccccc3)OC2=O)c([N+](=O)[O-])c1OC ... > 100 µM

-- ask Could you tell me which TGI is on file for CC(Oc1ccccc1Cl)C(=O)NN1C(=O)CC(=O)N(c2ccccc2)C1=S (stereo not drawn) ?
-- reply > 100 µM

-- ask Tell me the measured TGI of Cc1ccc(C2(c3ccc(Cl)cc3)c3ccccc3C3=NCCN32)cc1 (stereo not drawn) , please.
-- reply 26 µM

-- ask Consider the compound CCOC(=O)CC1COc2ccc3c(c21)OCO3 (stereo not drawn) and give its measured TGI.
-- reply > 100 µM

----------
test system: SN12C renal; test: NCI tumour cell line growth inhibition, 48 h; in the data active means GI50 below about 0.43 µM; inactive means the rest
Response enum: y (active), n (inactive)

N.N.N.N.N.NC(=O)[O-].[Co+3].[I-] ... n

-- ask Hi, sorry to bother you, what did the test record for CCC[CH2][Sn]([CH2]CCC)([O]c1cccc2cccnc12)[O]c1cccc2cccnc12 ?
-- reply y

-- ask What did this assay record as the result for COc1ccc2c3c(Nc4cccc(/C(C)=N\O)c4)[nH]c4ccccc4c-3c(N=O)c2c1 ?
-- reply n

-- ask Dear all, I need the recorded test outcome for Oc1ccc(O)c(-c2cn3c(n2)SCC3)c1 , thank you.
-- reply n

-- ask Look up the recorded call for COc1cccc(/C=C/C(=O)c2ccc(SC)cc2)c1OC in this test.
-- reply n

-- ask Hello, I am checking results. What call was entered for CCN1CCC(Nc2ccnc3cc(Cl)ccc23)CC1 ?
-- reply n

-- ask How did this test come out for CC1CCN(Cc2ccc(NC(=O)c3cc4ccc5cccnc5c4[nH]3)cc2)CC1 ?
-- reply n

-- ask // return assay outcome for Nc1c(C(=O)Nc2ccccc2)sc2nc3c(cc12)CCCCC3
-- reply n

-- ask # outcome recorded in this test, key = O=C1/C(=C/c2ccccc2)CN(C(=O)C(Cl)Cl)C/C1=C\c1ccccc1
-- reply n

-- ask Returns: the outcome recorded for COc1cc(C2CC(c3cccc(Nc4ccnc5cc(Cl)ccc45)c3)=NN2c2ccc(Cl)cc2)cc(OC)c1OC (stereo not given) in this assay.
-- reply n

----------
system: UACC-257 melanoma; test: NCI tumour cell line growth inhibition, 48 h
# TGI annotations
Provide only the numeric value, understood in µM.

-- ask # input compound: CC(=O)OC1CCC2(C)C(CCC3C2CC(=O)C2(C)C3CC(N3CC3)C2C(C)=O)C1 (stereo not given) ; wanted: its TGI
-- reply 32.5

-- ask Tell me the measured TGI of CC(C)C(=O)N1Cc2cc(Cl)cc(Cl)c2OC(=O)c2ccccc21 , please.
-- reply 32.8

-- ask # get_value(readout='TGI', item= CC1(c2sccc2Cl)CC(c2sccc2Cl)=C(C#N)C(=C(C#N)C#N)N1 (stereo not given) )
-- reply 39.2

-- ask Return reported TGI; argument: O=S(=O)(CCN1CCOCC1)Nc1cc(-c2ccc3ncnc(Nc4ccc(F)c(Cl)c4)c3c2)cnc1Cl
-- reply 8.12

----------
tested on: SF-539 CNS; test: NCI tumour cell line growth inhibition, 48 h
Quick reference: TGI of the listed items.
Provide only the numeric value, understood in µM.

Known TGI results, listed for orientation:
Cc1c2ccn(O)cc2c(C)c2c1nc1ccccc12 ... 11
NC(=NCc1ccccc1)C(N=Nc1ccccc1)C(=O)NCc1ccccc1 (stereo not given) ... 37.1

-- ask Item under review: COc1cc2c(c(OC)c1OC)-c1ccc(SC)c(=O)cc1C(CC(=O)Oc1cccc([N+](=O)[O-])c1)C2 (stereo not given) . Reported TGI?
-- reply 1.32
